system: PPARg DBDmut IVT, anti-PPARg (DBD mutation: PPARg1 K132A/R137A, NR concentration 270 nM); test: PBM binding z-score (relative to random genomic background probes); higher = stronger binding; sequences stand for … in GC…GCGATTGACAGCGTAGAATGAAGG
PBM binding z-score values, listed per item
Note: the reply should be a number with no unit written.

The sequence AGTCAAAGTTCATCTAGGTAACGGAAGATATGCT on PPARg DBDmut IVT, anti-PPARg (DBD mutation: PPARg1 K132A/R137A, NR concentration 270 nM): PBM binding z-score was 0.45

The sequence CCTCGGAGGACAGCAGGAGGTCAGAGCTGCCAGA on PPARg DBDmut IVT, anti-PPARg (DBD mutation: PPARg1 K132A/R137A, NR concentration 270 nM): PBM binding z-score was -2.54

The sequence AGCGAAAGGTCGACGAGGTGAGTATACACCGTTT on PPARg DBDmut IVT, anti-PPARg (DBD mutation: PPARg1 K132A/R137A, NR concentration 270 nM): PBM binding z-score was 0.154

The sequence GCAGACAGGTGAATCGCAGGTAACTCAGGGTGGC on PPARg DBDmut IVT, anti-PPARg (DBD mutation: PPARg1 K132A/R137A, NR concentration 270 nM): PBM binding z-score was -0.904

New cases:
The sequence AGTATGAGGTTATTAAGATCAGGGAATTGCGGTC on PPARg DBDmut IVT, anti-PPARg (DBD mutation: PPARg1 K132A/R137A, NR concentration 270 nM): PBM binding z-score was 0.314

The sequence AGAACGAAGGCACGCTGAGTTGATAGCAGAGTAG on PPARg DBDmut IVT, anti-PPARg (DBD mutation: PPARg1 K132A/R137A, NR concentration 270 nM): PBM binding z-score was -0.623

The sequence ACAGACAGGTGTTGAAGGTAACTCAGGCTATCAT on PPARg DBDmut IVT, anti-PPARg (DBD mutation: PPARg1 K132A/R137A, NR concentration 270 nM): PBM binding z-score was 0.107

The sequence TCTTGTAAATCAAGCAGGTTAAGAAAGCCTGAGT on PPARg DBDmut IVT, anti-PPARg (DBD mutation: PPARg1 K132A/R137A, NR concentration 270 nM): PBM binding z-score was 0.31

The sequence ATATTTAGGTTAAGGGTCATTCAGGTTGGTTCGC on PPARg DBDmut IVT, anti-PPARg (DBD mutation: PPARg1 K132A/R137A, NR concentration 270 nM): PBM binding z-score was 5.2

The sequence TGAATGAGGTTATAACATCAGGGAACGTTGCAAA on PPARg DBDmut IVT, anti-PPARg (DBD mutation: PPARg1 K132A/R137A, NR concentration 270 nM): PBM binding z-score was 0.499

The sequence AGAATGAGGTTACCGAAGATCAGGGAAACGCTTG on PPARg DBDmut IVT, anti-PPARg (DBD mutation: PPARg1 K132A/R137A, NR concentration 270 nM): PBM binding z-score was 0.381

The sequence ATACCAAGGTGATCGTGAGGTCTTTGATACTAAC on PPARg DBDmut IVT, anti-PPARg (DBD mutation: PPARg1 K132A/R137A, NR concentration 270 nM): PBM binding z-score was 0.702

----------
PBM binding z-score values, listed per item
system: LXRb:RXRa (NR concentration 270 nM, RXRa partner concentration 90 nM); assay: PBM binding z-score (relative to random genomic background probes); higher = stronger binding; sequences stand for … in GC…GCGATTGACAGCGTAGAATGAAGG
Note: the reply should be a number with no unit written.

# annotated cases, reported PBM binding z-score shown
Quick note, PBM binding z-score for CAAACTAGGTCAAGATCAAAGTCGGTTTGTGCCA landed at 1.67

Quick note, PBM binding z-score for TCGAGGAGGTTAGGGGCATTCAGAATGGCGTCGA landed at 1.71

Quick note, PBM binding z-score for TCATAAAGGTAATACAGGTGAAAGTCGGCATCTA landed at 1.49

Quick note, PBM binding z-score for GCTTATAGATCAAGGTTAAGAAAGACTAAGCTAA landed at 0.438

Quick note, PBM binding z-score for ATCTCTAGGTAAGACTCAGTTCAGAGAAGAACGC landed at -0.0123

Now examine the next entry.
Quick note, PBM binding z-score for CCTTACGGGTTAAGGTTATAGCACGGGTGGTACG landed at 1.09

----------
tested on: LXRb homodimer (NR concentration 270 nM); assay: PBM binding z-score (relative to random genomic background probes); higher = stronger binding; sequences stand for … in GC…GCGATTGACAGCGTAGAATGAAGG
The recorded PBM binding z-score of each item maps onto one of these classes: bottom = under 0.3, middle = from 0.3 up to 0.6, top = 0.6 and over

Below are worked cases with known answers.
query: Which PBM binding z-score category applies to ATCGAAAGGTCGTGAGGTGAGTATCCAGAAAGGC here?
result: middle

query: Which PBM binding z-score category applies to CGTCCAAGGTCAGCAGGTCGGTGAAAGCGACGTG here?
result: bottom

query: Which PBM binding z-score category applies to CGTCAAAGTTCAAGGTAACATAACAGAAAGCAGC here?
result: top

query: Which PBM binding z-score category applies to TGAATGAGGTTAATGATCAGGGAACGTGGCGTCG here?
result: bottom

query: Which PBM binding z-score category applies to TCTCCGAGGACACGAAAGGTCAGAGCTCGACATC here?
result: middle

query: Which PBM binding z-score category applies to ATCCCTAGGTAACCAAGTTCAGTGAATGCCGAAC here?
result: middle

New cases:
query: Which PBM binding z-score category applies to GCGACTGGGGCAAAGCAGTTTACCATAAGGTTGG here?
result: bottom

query: Which PBM binding z-score category applies to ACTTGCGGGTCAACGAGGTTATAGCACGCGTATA here?
result: middle

----------
tested on: LXRa homodimer (NR concentration 270 nM); experiment: PBM binding z-score (relative to random genomic background probes); higher = stronger binding; sequences stand for … in GC…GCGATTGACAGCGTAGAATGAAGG
PBM binding z-score values, listed per item
Note: the reply should be a number with no unit written.

Quick note, PBM binding z-score for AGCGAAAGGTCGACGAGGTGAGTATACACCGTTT landed at -0.376

New cases:
Quick note, PBM binding z-score for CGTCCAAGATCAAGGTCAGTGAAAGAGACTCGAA landed at 0.459

Quick note, PBM binding z-score for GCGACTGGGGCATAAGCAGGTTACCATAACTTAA landed at -0.305

Quick note, PBM binding z-score for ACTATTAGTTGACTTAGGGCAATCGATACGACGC landed at 0.0491

Quick note, PBM binding z-score for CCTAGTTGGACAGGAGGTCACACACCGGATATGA landed at 1.86

Quick note, PBM binding z-score for ATATGTAGGTTAGCTGCGGTCATTCAGACTAGGC landed at 4.17

----------
tested on: PPARg:RXRa (NR concentration 180 nM, RXRa partner concentration 90 nM); test: PBM binding z-score (relative to random genomic background probes); higher = stronger binding; sequences stand for … in GC…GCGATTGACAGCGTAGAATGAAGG
PBM binding z-score values, listed per item
Note: the reply should be a number with no unit written.

Quick note, PBM binding z-score for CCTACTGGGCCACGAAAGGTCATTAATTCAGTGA landed at 4.47

Quick note, PBM binding z-score for ACTTACGGGTCAACTAGGTTATAGCACGCGTATA landed at 6.09

Quick note, PBM binding z-score for TTACCAAGGTGAGCTGAGGACGTTGATCCAACTC landed at -0.0163

Quick note, PBM binding z-score for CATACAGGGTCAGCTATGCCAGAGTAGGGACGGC landed at 3.53

Quick note, PBM binding z-score for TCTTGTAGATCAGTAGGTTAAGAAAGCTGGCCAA landed at 0.0222

Quick note, PBM binding z-score for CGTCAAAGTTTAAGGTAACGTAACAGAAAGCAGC landed at 0.72

Quick note, PBM binding z-score for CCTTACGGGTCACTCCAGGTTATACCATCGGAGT landed at 3.61

Quick note, PBM binding z-score for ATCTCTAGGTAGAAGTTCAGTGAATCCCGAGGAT landed at 4.33

Quick note, PBM binding z-score for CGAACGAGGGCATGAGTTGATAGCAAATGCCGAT landed at 1.35

Quick note, PBM binding z-score for GCTATTAGTTGAAAGTGCAACCGAATGATTCTCG landed at 1.28

New cases:
Quick note, PBM binding z-score for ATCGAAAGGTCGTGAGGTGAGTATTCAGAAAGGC landed at 4.06

Quick note, PBM binding z-score for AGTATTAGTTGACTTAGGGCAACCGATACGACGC landed at 0.82
